# % inhibition of binding annotations
assayed_system: tetanus neurotoxin (TeNT), authentic tetanus holotoxin (Clostridium tetani, UniProt P04958 2-1315)
Sequence (P04958 2-457 limits assumed, chain 1 of 2): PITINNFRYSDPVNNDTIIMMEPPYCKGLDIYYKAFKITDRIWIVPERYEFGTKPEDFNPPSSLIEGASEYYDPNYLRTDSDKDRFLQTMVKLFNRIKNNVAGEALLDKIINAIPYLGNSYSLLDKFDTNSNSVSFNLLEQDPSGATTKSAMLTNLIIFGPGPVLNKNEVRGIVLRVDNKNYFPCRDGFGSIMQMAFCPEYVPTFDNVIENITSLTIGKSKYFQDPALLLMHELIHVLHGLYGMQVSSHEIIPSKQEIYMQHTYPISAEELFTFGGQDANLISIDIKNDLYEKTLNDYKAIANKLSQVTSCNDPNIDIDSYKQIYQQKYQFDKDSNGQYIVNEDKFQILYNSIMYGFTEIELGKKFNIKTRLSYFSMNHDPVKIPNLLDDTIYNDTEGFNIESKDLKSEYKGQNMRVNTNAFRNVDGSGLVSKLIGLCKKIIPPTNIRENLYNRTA
Sequence (P04958 458-1315 limits assumed, chain 2 of 2): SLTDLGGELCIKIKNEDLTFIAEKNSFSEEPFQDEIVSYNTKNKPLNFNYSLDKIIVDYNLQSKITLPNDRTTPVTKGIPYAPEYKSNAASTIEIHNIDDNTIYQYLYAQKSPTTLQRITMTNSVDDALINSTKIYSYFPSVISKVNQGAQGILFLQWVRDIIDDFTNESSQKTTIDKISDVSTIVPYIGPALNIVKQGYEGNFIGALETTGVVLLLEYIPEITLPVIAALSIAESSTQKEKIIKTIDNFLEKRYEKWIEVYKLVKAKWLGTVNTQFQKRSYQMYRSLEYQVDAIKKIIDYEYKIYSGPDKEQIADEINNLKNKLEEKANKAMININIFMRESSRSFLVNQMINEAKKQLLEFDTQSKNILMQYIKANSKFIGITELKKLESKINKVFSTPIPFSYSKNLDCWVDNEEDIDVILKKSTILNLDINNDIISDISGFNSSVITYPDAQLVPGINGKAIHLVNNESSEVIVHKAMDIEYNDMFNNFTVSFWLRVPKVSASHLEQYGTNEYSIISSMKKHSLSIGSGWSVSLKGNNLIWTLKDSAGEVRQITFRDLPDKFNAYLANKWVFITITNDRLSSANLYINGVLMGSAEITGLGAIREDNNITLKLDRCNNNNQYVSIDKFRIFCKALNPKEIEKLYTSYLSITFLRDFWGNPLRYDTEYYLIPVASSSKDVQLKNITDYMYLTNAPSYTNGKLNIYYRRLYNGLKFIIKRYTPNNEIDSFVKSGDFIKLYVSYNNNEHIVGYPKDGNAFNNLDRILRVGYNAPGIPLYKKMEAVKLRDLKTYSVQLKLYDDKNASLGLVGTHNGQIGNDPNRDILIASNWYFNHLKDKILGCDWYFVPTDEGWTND
assay_notes: competition ELISA on TeNT, binder biotinylated; competitor SVT06L; note: test concentration or dose not given here
The figure you give is taken to be in %; do not add the unit.

binder	quantitative_readout
SVT34L (VHH) VHH: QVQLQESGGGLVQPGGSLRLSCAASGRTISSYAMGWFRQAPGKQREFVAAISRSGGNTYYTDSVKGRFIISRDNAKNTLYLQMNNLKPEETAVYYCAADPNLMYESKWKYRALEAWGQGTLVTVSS	-2

get_value(item= SVT06L (VHH) VHH: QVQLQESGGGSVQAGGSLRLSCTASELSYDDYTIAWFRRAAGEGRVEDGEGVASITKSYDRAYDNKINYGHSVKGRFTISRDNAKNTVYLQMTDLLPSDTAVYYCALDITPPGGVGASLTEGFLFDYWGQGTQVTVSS , readout=% inhibition of binding) returns 96
